# SYSTEM_UNDER_TEST: UniProtKB P01116
# Sequence (P01116 whole entry): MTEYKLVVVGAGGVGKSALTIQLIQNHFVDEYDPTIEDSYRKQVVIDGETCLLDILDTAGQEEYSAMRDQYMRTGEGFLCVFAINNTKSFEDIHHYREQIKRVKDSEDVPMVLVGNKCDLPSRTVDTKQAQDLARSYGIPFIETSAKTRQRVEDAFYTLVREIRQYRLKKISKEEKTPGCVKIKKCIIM
# TEST: Binding to KRAS by surface plasmon resonance (SPR), Single Cycle Kinetics
# CONDITION_DESCRIPTION: SPR, Single Cycle Kinetics, 1:1 binding model; GDP-bound KRAS wild-type protein; read-out: KRAS KD
MEASUREMENT_LABEL: pKd
Give bare numbers, as −log10 of the molar value.

Reported pKd of CCO[C@@H]1C[C@H]2C(=O)NC3(CCC3)C(=O)N(C)[C@@H](C(CC)CC)C(=O)N(C)[C@H](C(=O)N(C)C)CC(=O)N(C)[C@@H](CC)C(=O)N[C@@H]([C@@H](C)CC)C(=O)N(C)CC(=O)N(C)[C@H]3C/C=C\CCN(C3=O)[C@@H](Cc3ccc(C(F)(F)F)cc3)C(=O)N(C)CC(=O)N[C@@H](CCc3ccc(Cl)c(Cl)c3)C(=O)N2C1 : 9.38

Reported pKd of CCO[C@@H]1C[C@H]2C(=O)NC3(CCC3)C(=O)N(C)[C@@H](C3CCCC3)C(=O)N(C)[C@H](C(=O)N(C)C)CC(=O)N(C)[C@@H](CC3CC3)C(=O)N[C@@H]([C@@H](C)CC)C(=O)N(C)CC(=O)N(C)[C@H]3C/C=C\CCN(C3=O)[C@@H](Cc3ccc(F)cc3)C(=O)N(C)CC(=O)N[C@@H](CCc3cc(F)c(Cl)c(F)c3)C(=O)N2C1 : 9.31

Below: the item to evaluate.
Reported pKd of CCO[C@@H]1C[C@H]2C(=O)NC3(CC(C)(C)C3)C(=O)N(C)[C@@H](C3CCCC3)C(=O)N(C)[C@H](C(C)C)CC(=O)N(C)[C@@H](CC)C(=O)N[C@@H]([C@@H](C)CC)C(=O)N(C)CC(=O)N(C)[C@H]3C/C=C\CCN(C3=O)[C@@H](CC3CCCCC3)C(=O)N(C)CC(=O)N[C@@H](CCc3cc(F)c(C(F)(F)F)c(F)c3)C(=O)N2C1 : 8.28
